- experimentDescription: The drug is tested on WLS-052 corresponding to human gut metagenome with ENA study accession number: PRJEB37062 and ENA sample accession number: ERS12561747 for biotransformation under anaerobic condition. The drug concentrations were measured over 9 timepoints collected between 0 and 24 hours of incubation by liquid-chromatography-coupled mass spectrometry (LC–MS); further: call rule not given here
- conditionInfo: 2 µM
attributeMeasured: Bacterial Biotransformation

Please review the entries below; each comes with its answer.
Value of Bacterial Biotransformation reported for the molecule Cc1ccc(S(=O)(=O)NC(=O)NN2CC3CCCC3C2)cc1 (stereo not drawn) [GLICLAZIDE] is Compound metabolized

Value of Bacterial Biotransformation reported for the molecule "COC1=CC(=O)C[C@@H](C)[C@]12Oc1c(Cl)c(OC)cc(OC)c1C2=O" is Compound metabolized

Value of Bacterial Biotransformation reported for the molecule CC(=O)O[C@]1(C(C)=O)CC[C@H]2[C@@H]3C=C(Cl)C4=CC(=O)[C@@H]5C[C@@H]5[C@]4(C)[C@H]3CC[C@@]21C [CYPROTERONE ACETATE] is Compound metabolized

Value of Bacterial Biotransformation reported for the molecule "O=C(CCCN1CCC(O)(c2ccc(Cl)cc2)CC1)c1ccc(F)cc1" is Compound NOT metabolized

Value of Bacterial Biotransformation reported for the molecule Cc1nc2n(c(=O)c1CCN1CCC(c3noc4cc(F)ccc34)CC1)CCCC2O (stereo not drawn) is Compound metabolized

Further cases:
Value of Bacterial Biotransformation reported for the molecule "c1ccc([C@H]2CN3CCSC3=N2)cc1" is Compound NOT metabolized

Value of Bacterial Biotransformation reported for the molecule Cc1ccccc1N1C(=O)c2cc(S(N)(=O)=O)c(Cl)cc2NC1C (stereo not drawn) is Compound metabolized

Value of Bacterial Biotransformation reported for the molecule NS(=O)(=O)c1cc2c(cc1Cl)N=C(CSCc1ccccc1)NS2(=O)=O [BENZTHIAZIDE] is Compound NOT metabolized

----------
- experimentDescription: The drug is tested on Z-006 corresponding to mouse gut metagenome with ENA study accession number: PRJEB37062 and ENA sample accession number: ERS12561806 for biotransformation under anaerobic condition. The drug concentrations were measured over 9 timepoints collected between 0 and 24 hours of incubation by liquid-chromatography-coupled mass spectrometry (LC–MS)
- conditionInfo: 2 µM
attributeMeasured: Bacterial Biotransformation

Value of Bacterial Biotransformation reported for the molecule COc1ccc(CCN(C)CCCC(C#N)(c2ccc(OC)c(OC)c2)C(C)C)cc1OC (stereo not given) is Compound NOT metabolized

Value of Bacterial Biotransformation reported for the molecule COc1cc2c(c(OC)c1OC)-c1ccc(OC)c(=O)cc1[C@@H](NC(C)=O)CC2 [COLCHICINE] is Compound NOT metabolized

Value of Bacterial Biotransformation reported for the molecule CCc1nn(CCCN2CCN(c3cccc(Cl)c3)CC2)c(=O)n1CCOc1ccccc1 [NEFAZODONE] is Compound NOT metabolized

Value of Bacterial Biotransformation reported for the molecule O=c1[nH]c2ccccc2n1C1CCN(CCCC(c2ccc(F)cc2)c2ccc(F)cc2)CC1 [PIMOZIDE] is Compound metabolized

Value of Bacterial Biotransformation reported for the molecule CC(C)(C#N)c1cc(Cn2cncn2)cc(C(C)(C)C#N)c1 [ANASTROZOLE] is Compound NOT metabolized

Value of Bacterial Biotransformation reported for the molecule CN1C(=O)CC(C)(c2ccccc2)C1=O (stereo not given) [METHSUXIMIDE] is Compound NOT metabolized

Value of Bacterial Biotransformation reported for the molecule NC(=O)N1c2ccccc2CC(=O)c2ccccc21 [OXCARBAZEPINE] is Compound NOT metabolized

Value of Bacterial Biotransformation reported for the molecule O=C(CCCN1CCC(O)(c2ccc(Cl)cc2)CC1)c1ccc(F)cc1 [HALOPERIDOL] is Compound NOT metabolized

Further cases:
Value of Bacterial Biotransformation reported for the molecule CC(CN1c2ccccc2Sc2ccccc21)N(C)C (stereo not given) [PROMETHAZINE] is Compound NOT metabolized

Value of Bacterial Biotransformation reported for the molecule CC(C)OC(=O)C(C)(C)Oc1ccc(C(=O)c2ccc(Cl)cc2)cc1 [FENOFIBRATE] is Compound metabolized

----------
- conditionInfo: human gut metagenome, 24 h, 2 µM
attributeMeasured: Bacterial Biotransformation

Please review the entries below; each comes with its answer.
Value of Bacterial Biotransformation reported for the compound C[C@@H](CO)NC(=O)[C@@H]1C=C2c3cccc4[nH]cc(c34)C[C@H]2N(C)C1.O=C(O)/C=C\C(=O)O [ERGONOVINE MALEATE] is Compound metabolized

Value of Bacterial Biotransformation reported for the compound COc1ccccc1OCC(O)CN1CCN(CC(=O)Nc2c(C)cccc2C)CC1 (stereo not drawn) [RANOLAZINE] is Compound NOT metabolized

Value of Bacterial Biotransformation reported for the compound CN(C)CC(c1ccc(O)cc1)C1(O)CCCCC1.O=C(O)CCC(=O)O (stereo not drawn) [DESVENLAFAXINE SUCCINATE] is Compound NOT metabolized

Value of Bacterial Biotransformation reported for the compound CC(O)(CS(=O)(=O)c1ccc(F)cc1)C(=O)Nc1ccc(C#N)c(C(F)(F)F)c1 (stereo not drawn) [BICALUTAMIDE] is Compound NOT metabolized

Value of Bacterial Biotransformation reported for the compound CN1CCC(=C2c3ccccc3CCc3cccnc32)CC1.O=C(O)/C=C\C(=O)O.O=C(O)/C=C\C(=O)O [AZATADINE MALEATE] is Compound NOT metabolized

Value of Bacterial Biotransformation reported for the compound Nc1ccc(/N=N/c2ccccc2)c(N)n1 [PHENAZOPYRIDINE] is Compound metabolized

Value of Bacterial Biotransformation reported for the compound CCOC(=O)[C@H](CCc1ccccc1)N[C@@H](C)C(=O)N1[C@H](C(=O)O)C[C@H]2CCCC[C@@H]21 [TRANDOLAPRIL] is Compound metabolized

Further cases:
Value of Bacterial Biotransformation reported for the compound Cc1cn([C@H]2C[C@H](N=[N+]=[N-])[C@@H](CO)O2)c(=O)[nH]c1=O [ZIDOVUDINE] is Compound NOT metabolized

----------
- conditionInfo: human gut metagenome, 24 h, 2 µM
attributeMeasured: Bacterial Biotransformation

Please review the entries below; each comes with its answer.
Value of Bacterial Biotransformation reported for the molecule CN/C(=N/CCSCc1nc[nH]c1C)NC#N [CIMETIDINE] is Compound NOT metabolized

Value of Bacterial Biotransformation reported for the molecule OCCN1CCN(CCCN2c3ccccc3Sc3ccc(C(F)(F)F)cc32)CC1 [FLUPHENAZINE] is Compound metabolized

Value of Bacterial Biotransformation reported for the molecule CCCc1nc(C(C)(C)O)c(C(=O)OCc2oc(=O)oc2C)n1Cc1ccc(-c2ccccc2-c2nnn[nH]2)cc1 [OLMESARTAN MEDOXOMIL] is Compound metabolized

Value of Bacterial Biotransformation reported for the molecule CNS(=O)(=O)Cc1ccc2[nH]cc(CCN(C)C)c2c1.O=C(O)CCC(=O)O [SUMATRIPTAN SUCCINATE] is Compound NOT metabolized

Value of Bacterial Biotransformation reported for the molecule Cc1ccc(/C(=C\CN2CCCC2)c2ccccn2)cc1 [TRIPROLIDINE] is Compound NOT metabolized

Further cases:
Value of Bacterial Biotransformation reported for the molecule "Cc1cc2c(cc1S(N)(=O)=O)S(=O)(=O)CCC2" is Compound NOT metabolized

Value of Bacterial Biotransformation reported for the molecule C=CCc1ccccc1OCC(O)CNC(C)C (configuration not stated) [ALPRENOLOL] is Compound NOT metabolized

----------
- experimentDescription: The drug is tested on WLS-240 corresponding to human gut metagenome with ENA study accession number: PRJEB37062 and ENA sample accession number: ERS12561773 for biotransformation under anaerobic condition. The drug concentrations were measured over 9 timepoints collected between 0 and 24 hours of incubation by liquid-chromatography-coupled mass spectrometry (LC–MS)
- conditionInfo: 2 µM
attributeMeasured: Bacterial Biotransformation

Please review the entries below; each comes with its answer.
Value of Bacterial Biotransformation reported for the molecule CCC1(c2ccc(N)cc2)CCC(=O)NC1=O (stereo unspecified) [AMINOGLUTETHIMIDE] is Compound NOT metabolized

Value of Bacterial Biotransformation reported for the molecule "O=c1[nH]c2ccccc2n1CCCN1CCC(n2c(=O)[nH]c3cc(Cl)ccc32)CC1" is Compound NOT metabolized

Value of Bacterial Biotransformation reported for the molecule COc1ccccc1N1CCN(CC(O)COc2cccc3ccccc23)CC1 (stereo unspecified) is Compound NOT metabolized

Value of Bacterial Biotransformation reported for the molecule "Cc1nc(-c2ccc(OCC(C)C)c(C#N)c2)sc1C(=O)O" is Compound metabolized

Value of Bacterial Biotransformation reported for the molecule CS(=O)(=O)O.O.O.O.O=C1Cc2cc(CCN3CCN(c4nsc5ccccc45)CC3)c(Cl)cc2N1 [ZIPRASIDONE MESYLATE] is Compound metabolized

# context switch: different molecule, same Bacterial Biotransformation
Value of Bacterial Biotransformation reported for the molecule COc1ccc2[nH]c([S+]([O-])Cc3ncc(C)c(OC)c3C)nc2c1 (stereo unspecified) is Compound metabolized
